- tested_on: human mGlu5 (hmGlu5) (Homo sapiens, UniProt P41594)
- Sequence (P41594 21-1180 isoform P41594-2): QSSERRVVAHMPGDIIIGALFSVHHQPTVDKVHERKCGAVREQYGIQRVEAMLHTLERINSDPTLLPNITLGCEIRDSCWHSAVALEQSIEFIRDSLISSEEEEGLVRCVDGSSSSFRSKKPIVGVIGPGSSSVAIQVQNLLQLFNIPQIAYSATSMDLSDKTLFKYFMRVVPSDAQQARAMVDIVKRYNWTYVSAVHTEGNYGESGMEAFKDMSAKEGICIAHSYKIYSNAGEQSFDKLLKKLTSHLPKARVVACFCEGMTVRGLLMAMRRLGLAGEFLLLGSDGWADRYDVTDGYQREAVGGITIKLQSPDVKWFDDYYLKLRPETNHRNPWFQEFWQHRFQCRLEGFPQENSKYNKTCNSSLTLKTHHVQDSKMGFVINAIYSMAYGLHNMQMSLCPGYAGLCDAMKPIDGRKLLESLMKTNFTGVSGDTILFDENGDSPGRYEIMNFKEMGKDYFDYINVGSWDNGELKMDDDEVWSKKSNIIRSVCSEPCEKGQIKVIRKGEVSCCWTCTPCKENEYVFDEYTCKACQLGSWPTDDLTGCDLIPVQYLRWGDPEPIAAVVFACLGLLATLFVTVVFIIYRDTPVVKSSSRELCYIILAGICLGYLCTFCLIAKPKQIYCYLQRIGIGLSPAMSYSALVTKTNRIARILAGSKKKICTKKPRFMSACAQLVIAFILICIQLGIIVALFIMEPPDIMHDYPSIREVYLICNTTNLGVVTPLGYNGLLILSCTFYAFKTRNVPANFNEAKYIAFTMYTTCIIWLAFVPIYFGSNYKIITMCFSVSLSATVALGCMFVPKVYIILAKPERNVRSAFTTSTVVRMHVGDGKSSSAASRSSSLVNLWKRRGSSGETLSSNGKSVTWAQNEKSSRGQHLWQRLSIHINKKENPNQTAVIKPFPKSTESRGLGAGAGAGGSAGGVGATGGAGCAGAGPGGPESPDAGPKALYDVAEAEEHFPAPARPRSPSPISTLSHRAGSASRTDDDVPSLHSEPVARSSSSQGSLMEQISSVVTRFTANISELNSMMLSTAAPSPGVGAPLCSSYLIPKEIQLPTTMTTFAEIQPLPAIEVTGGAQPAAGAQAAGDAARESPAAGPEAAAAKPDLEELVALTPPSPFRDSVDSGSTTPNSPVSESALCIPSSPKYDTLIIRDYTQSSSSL
- assay_remarks: iCa2+ mobilisation
- Format: cell-based
value_kind: pEC50
Answer as the number alone; pEC50 is minus log10 of concentration in mol/L.

[[record]]
molecule = "C[C@@H](NC(=O)c1ccc(C#Cc2cccc(F)c2)cn1)C(C)(C)O"
value_kind = "pEC50"
measured_value = 6.56


Consider the record given below.
Give pEC50 for the following molecule: N[C@H](C(=O)O)c1cc(O)cc(O)c1 [DHPG, (S)-3,5-dihydroxyphenylglycine]
5.96

###

# Kd listing for each entry below
- tested_on: UniProt P41594
- assay_remarks: whole-cell [3H]methoxy-PEPy inhibition binding
- Format: cell-based
Numeric only. Scale: nM

Past entries and their recorded results:
[[record]]
compound = "N#Cc1cc(F)cc(C(=O)Nc2cccc(Cl)c2F)c1"
measured_value = 224

[[record]]
compound = "C[C@@H](NC(=O)c1ccc(C#Cc2cccc(F)c2)cn1)C(C)(C)O"
measured_value = 35.5

[[record]]
compound = "CCCCOc1ccc(C(=O)Nc2ccc(F)cc2F)cc1 [VU0357121, 4-butoxy-N-(2,4-difluorophenyl)benzamide]"
measured_value = 537


Give Kd for the following compound: CN1CC(=O)N=C1NC(=O)Nc1cccc(Cl)c1
81.3

Every entry's value here was drawn from paper doi:10.1101/2024.12.05.627101v1.
